- SYSTEM: M1 muscarinic receptor (Homo sapiens)
- Construct: expressed in transfected cells; host or cells: CHO (M1-CHO)
- PROTOCOL DETAILS: Functional mobilization of intracellular calcium (FLIPR) in M1-CHO cells
- Assay type: cell-based
- STUDY CONDITIONS: M1 receptor, calcium mobilization; read-out: M1 Efficacy

>  <MOLECULE>
Fc1ccc2c(c1)C1(CCN(C3CCOCC3)CC1)CN2

>  <Emax>
65 to 85%

$$$$
>  <MOLECULE>
CCCOC(=O)N1CCC(N2CCC3(CC2)CN(C(C)=O)c2ccc(F)cc23)CC1

>  <Emax>
< 65%

$$$$
>  <MOLECULE>
CCOC(=O)N1CCC(N2CCC3(CC2)CN(C(=O)N(CC)CC)c2ccc(F)cc23)CC1

>  <Emax>
< 65%

$$$$
>  <MOLECULE>
CC(=O)N1CC2(CCN(C3CCCC3)CC2)c2cc(F)ccc21

>  <Emax>
65 to 85%

$$$$
>  <MOLECULE>
CCOC(=O)N1CCC(N2CCC3(CC2)CN(C(=O)N2CCCC2)c2ccc(F)cc23)CC1

>  <Emax>
65 to 85%

$$$$
>  <MOLECULE>
CCOC(=O)N1CCC(N2CCC3(CC2)CN(CC(C)=O)c2ccc(F)cc23)CC1

>  <Emax>
65 to 85%

$$$$
>  <MOLECULE>
CCOC(=O)N1CCC(CN2CCC3(CC2)COc2ccc(Cl)cc23)CC1

>  <Emax>
> 85%

$$$$
>  <MOLECULE>
c1ccc2c(c1)NCC21CCN(CC2CCCCC2)CC1

>  <Emax>
65 to 85%

$$$$
>  <MOLECULE>
CC(=O)N[C@@H]1CC2(CCN([C@@H]3C[C@H]4CC[C@@H]3C4)CC2)c2ccccc21

>  <Emax>
65 to 85%

$$$$
>  <MOLECULE>
COC(=O)N1CC2(CCN(C3CC4CCC(C3)N4C(=O)O[C@@H]3CCOC3)CC2)c2cc(F)ccc21 (some centres unmarked)

>  <Emax>
65 to 85%

$$$$
>  <MOLECULE>
CC1(C)C(=O)c2ccccc2C12CCN(C[C@H]1C[C@@H]3C=C[C@@H]1C3)CC2

>  <Emax>
< 65%

$$$$
>  <MOLECULE>
COCCOC(=O)N1CCC(N2CCC3(CC2)CN(C(C)=O)c2ccc(C)cc23)CC1

>  <Emax>
> 85%

$$$$
>  <MOLECULE>
Fc1ccc2c(c1)C1(CCN(C[C@H]3C[C@H]4CC[C@H]3O4)CC1)CN2

>  <Emax>
65 to 85%

$$$$
>  <MOLECULE>
CC(=O)N[C@H]1CC2(CCN(C3C4CC5CC(C4)CC3C5)CC2)c2ccccc21 (some centres unmarked)

>  <Emax>
< 65%

$$$$
>  <MOLECULE>
Cc1ccc2c(c1)C1(CCN(C3CC4CCC3C4)CC1)CN2 (centres unmarked)

>  <Emax>
> 85%

$$$$
>  <MOLECULE>
Cc1cc(C(=O)N2CC3(CCN(C4CC5CCC(C4)N5C(=O)O[C@@H]4CCOC4)CC3)c3cc(F)ccc32)nn1C (some centres unmarked)

>  <Emax>
65 to 85%

$$$$
>  <MOLECULE>
C#CCCOC(=O)N1CCC(N2CCC3(CC2)CN(C(C)=O)c2ccc(F)cc23)CC1

>  <Emax>
< 65%

$$$$

###

- SYSTEM: M4 muscarinic receptor (Homo sapiens)
- Construct: expressed in transfected cells; host or cells: CHO (M4-CHO)
- Sequence (P08173 1-479): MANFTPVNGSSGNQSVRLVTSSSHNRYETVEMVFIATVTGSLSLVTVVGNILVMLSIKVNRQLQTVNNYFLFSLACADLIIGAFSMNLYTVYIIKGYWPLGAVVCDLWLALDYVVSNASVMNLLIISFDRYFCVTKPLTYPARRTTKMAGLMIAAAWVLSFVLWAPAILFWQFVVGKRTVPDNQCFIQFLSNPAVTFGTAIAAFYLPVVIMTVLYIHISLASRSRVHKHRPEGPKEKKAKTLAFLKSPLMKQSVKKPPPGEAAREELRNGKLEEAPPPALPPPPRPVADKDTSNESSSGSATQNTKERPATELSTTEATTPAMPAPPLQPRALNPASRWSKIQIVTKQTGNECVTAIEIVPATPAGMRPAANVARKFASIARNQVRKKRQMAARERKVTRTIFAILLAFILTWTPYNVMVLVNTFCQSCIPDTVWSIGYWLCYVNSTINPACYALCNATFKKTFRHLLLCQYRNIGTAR
- PROTOCOL DETAILS: Functional mobilization of intracellular calcium (FLIPR) in M4-CHO cells
- Type: cell-based
- STUDY CONDITIONS: Table 4; 100% efficacy is the maximum response obtained with the Carbachol control

>  <MOLECULE>
COCCOC(=O)N1CC[C@H](CN2CCC3(CC2)CN(C(C)=O)c2ccccc23)C1 [compound 681]

>  <SYSTEM>
M4 muscarinic receptor (Homo sapiens)

>  <Emax>
< 25%

$$$$
>  <MOLECULE>
O=C1CC2(CCN(C3CCCCCC3)CC2)c2cc(Cl)ccc21 [compound 983]

>  <SYSTEM>
M4 muscarinic receptor (Homo sapiens)

>  <Emax>
25 to 100%

$$$$
>  <MOLECULE>
CCOC(=O)N1CCC(N2CCC3(CC2)CN(c2nc(C)ns2)c2ccccc23)CC1 [compound 700]

>  <SYSTEM>
M4 muscarinic receptor (Homo sapiens)

>  <Emax>
> 100%

$$$$
>  <MOLECULE>
O=C1CC2(CCN([C@@H]3C[C@@H]4CC[C@@H]3C4)CC2)c2cc(Cl)ccc21 [compound 787]

>  <SYSTEM>
M4 muscarinic receptor (Homo sapiens)

>  <Emax>
25 to 100%

$$$$

###

- SYSTEM: M1 muscarinic receptor (Homo sapiens)
- Construct: expressed in transfected cells; host or cells: CHO (M1-CHO)
- Sequence (P11229 1-460): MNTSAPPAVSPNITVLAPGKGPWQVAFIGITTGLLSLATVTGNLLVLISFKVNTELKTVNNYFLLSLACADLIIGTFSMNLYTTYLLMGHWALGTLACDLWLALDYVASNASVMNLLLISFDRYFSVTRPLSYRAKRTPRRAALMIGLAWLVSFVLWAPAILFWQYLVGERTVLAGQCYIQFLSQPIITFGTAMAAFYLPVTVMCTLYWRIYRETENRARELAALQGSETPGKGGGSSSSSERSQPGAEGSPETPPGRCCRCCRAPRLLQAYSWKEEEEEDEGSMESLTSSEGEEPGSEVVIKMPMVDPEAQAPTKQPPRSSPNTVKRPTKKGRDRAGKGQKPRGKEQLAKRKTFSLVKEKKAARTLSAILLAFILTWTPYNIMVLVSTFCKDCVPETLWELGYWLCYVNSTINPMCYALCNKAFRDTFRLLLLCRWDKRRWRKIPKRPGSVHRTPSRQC
- PROTOCOL DETAILS: Functional mobilization of intracellular calcium (FLIPR) in M1-CHO cells
- Format: cell-based
- STUDY CONDITIONS: Table 4; 100% efficacy is the maximum response obtained with the Carbachol control
- Method: Functional Mobilization of Intracellular Calcium to Determine Muscarinic Receptor Activity: […] Compounds are prepared at a 2× fold concentration in a 96-well plate (round bottom, Costar Corning cat# 3656), by reconstituting the pre-spotted compounds in bath 1 containing 1 mM probenecid. […] In both assay modes, the fluorescence is recorded for 60 sec (excitation wavelength is […] and emission wavelength 540 nm) using the FLIPR 3 instrument. […]
Item-by-item account of Emax
PROPERTY MEASURED: Emax

>  <COMPOUND>
CCOC(=O)N1CCC(N2CCC3(CC2)CN(C2CCC4(CC2)OCCO4)c2ccc(F)cc23)CC1

>  <PROPERTY MEASURED>
Emax

>  <RESULT>
> 100%

$$$$
>  <COMPOUND>
CC(=O)N[C@H]1CC2(CCN(CC(=O)N3C[C@@H](C)O[C@@H](C)C3)CC2)c2ccccc21

>  <PROPERTY MEASURED>
Emax

>  <RESULT>
< 25%

$$$$
>  <COMPOUND>
CN(C)C(=O)N1CC2(CCN(C3CCN(c4ccccn4)CC3)CC2)c2cc(F)ccc21

>  <PROPERTY MEASURED>
Emax

>  <RESULT>
25 to 100%

$$$$
>  <COMPOUND>
CC#CCOC(=O)N1CC[C@H](CN2CCC3(CC2)CN(C(C)=O)c2ccccc23)C1

>  <PROPERTY MEASURED>
Emax

>  <RESULT>
> 100%

$$$$
>  <COMPOUND>
O=C1CC2(CCN(C3CCCCCC3)CC2)c2ccc(Cl)cc21

>  <PROPERTY MEASURED>
Emax

>  <RESULT>
25 to 100%

$$$$
>  <COMPOUND>
COC(=O)N1CC[C@H](CN2CCC3(CC2)CN(C(C)=O)c2ccccc23)C1

>  <PROPERTY MEASURED>
Emax

>  <RESULT>
25 to 100%

$$$$
>  <COMPOUND>
Cc1ccc(N2CCC(N3CCC4(CC3)CN(C(=O)N(C)C)c3ccc(F)cc34)CC2)nn1

>  <PROPERTY MEASURED>
Emax

>  <RESULT>
25 to 100%

$$$$
>  <COMPOUND>
CCCOC(=O)N1CCCC(N2CCC3(CC2)CN(C(=O)N(C)C)c2ccc(F)cc23)CC1 (centres unmarked)

>  <PROPERTY MEASURED>
Emax

>  <RESULT>
25 to 100%

$$$$

The values you see were collected from patent US7786141B2.
